Entries and their relative viability values follow.
Test system: LU99A
experiment_description: relative viability (nuclei count vs DMSO), 5 days (fraction); higher = more cells survive
condition_summary: first compound 4 µM

Clc1ccc(Nc2nnc(Cc3ccncc3)c3ccccc23)cc1 [Vatalanib] + Nc1ncn([C@H]2C[C@H](O)[C@@H](CO)O2)c(=O)n1 [Decitabine] (partner 2 µM): 0.84
C[C@@H]1CN(CC(=O)Nc2ccc3c(c2)Cc2cccc(-c4cc(=O)cc(N5CCOCC5)o4)c2S3)C[C@H](C)O1 + N=C(N)NC(=N)NCCc1ccccc1 [Phenformin] (partner 250 µM): 0.916

Q: GET /values?readout=relative viability&item= Clc1ccc(Nc2nnc(Cc3ccncc3)c3ccccc23)cc1 [Vatalanib] + CS(=O)(=O)N1CCN(Cc2cc3nc(-c4cccc5[nH]ncc45)nc(N4CCOCC4)c3s2)CC1 [Pictilisib] (partner 1 µM)
A: 0.312
